Molecular target: T1, GPR39 (G protein coupled receptor 39) (UniProt O43194 1-453, limits assumed)
T1 sequence (looked up): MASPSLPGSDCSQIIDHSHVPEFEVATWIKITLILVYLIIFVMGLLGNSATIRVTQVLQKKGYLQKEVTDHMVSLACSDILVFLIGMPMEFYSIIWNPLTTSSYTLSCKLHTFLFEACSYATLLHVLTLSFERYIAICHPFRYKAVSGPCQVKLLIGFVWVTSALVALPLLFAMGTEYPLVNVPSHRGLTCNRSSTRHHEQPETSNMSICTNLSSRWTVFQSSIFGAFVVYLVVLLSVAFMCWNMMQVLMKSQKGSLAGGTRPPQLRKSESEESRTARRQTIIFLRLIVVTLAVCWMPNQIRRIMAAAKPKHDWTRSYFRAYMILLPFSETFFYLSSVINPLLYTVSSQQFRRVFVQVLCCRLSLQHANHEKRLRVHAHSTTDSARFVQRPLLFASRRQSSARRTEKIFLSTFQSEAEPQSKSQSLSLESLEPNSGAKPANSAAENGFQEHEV
Test: cell-based or functional assay
Square brackets hold non-standard residues; d marks the D form. Ends that are not written are not given here. * marks the point of attachment. thiophene = 2-(thiophen-2-yl) substituent on the histidine imidazole (2-(thiophen-2-yl)-1H-imidazol-4-yl), c1csc(*)c1; 1,2‑diphenyl = 1,2-diphenyl substituents on the histidine imidazole (1,2-diphenyl-1H-imidazol-4-yl); dPhe(4-Me) = Cc1ccc(C[C@@H](N)C(=O)O)cc1; Trt = c1ccc(C(c2ccccc2)(c2ccccc2)*)cc1; Octanoyl = CCCCCCCC(=O)*
Kindly state ECmax; SRE-luciferase reporter for each of the entries shown.

Below, 5 binders whose answers are already recorded.
{"columns": ["Binder", "ECmax; SRE-luciferase reporter"],
 "data": [
  ["H(1,2‑diphenyl)K(Octanoyl)[dPhe(4-Me)]Y-OH [HKFY-59]", "6.76 -fold induction over basal"],
  ["H(Fm)K(Octanoyl)FY [HKFY-18]", "10 -fold induction over basal"],
  ["H(2‑phenylethyl)K(Octanoyl)FY-OH (not fully specified) [HKFY-9]", "21 -fold induction over basal"],
  ["H(Trt)K(Octanoyl)FYW [HKFY-44]", "20 -fold induction over basal"],
  ["H(thiophene)K(Octanoyl)[dPhe(4-Me)]Y-OH [HKFY-63]", "13.5 -fold induction over basal"]
]}

Now consider the entry below.
Exam item: Report ECmax; SRE-luciferase reporter for H(Trt)K(Octanoyl)YY-OH [HKFY-48] please.
Marked response: 14.4 -fold induction over basal

The values you see were collected from patent US20250340591A1.
